target: Tyrosine-protein kinase JAK3 (Homo sapiens) (UniProt P52333); conditions: at 1 µM
Sequence (P52333 whole entry): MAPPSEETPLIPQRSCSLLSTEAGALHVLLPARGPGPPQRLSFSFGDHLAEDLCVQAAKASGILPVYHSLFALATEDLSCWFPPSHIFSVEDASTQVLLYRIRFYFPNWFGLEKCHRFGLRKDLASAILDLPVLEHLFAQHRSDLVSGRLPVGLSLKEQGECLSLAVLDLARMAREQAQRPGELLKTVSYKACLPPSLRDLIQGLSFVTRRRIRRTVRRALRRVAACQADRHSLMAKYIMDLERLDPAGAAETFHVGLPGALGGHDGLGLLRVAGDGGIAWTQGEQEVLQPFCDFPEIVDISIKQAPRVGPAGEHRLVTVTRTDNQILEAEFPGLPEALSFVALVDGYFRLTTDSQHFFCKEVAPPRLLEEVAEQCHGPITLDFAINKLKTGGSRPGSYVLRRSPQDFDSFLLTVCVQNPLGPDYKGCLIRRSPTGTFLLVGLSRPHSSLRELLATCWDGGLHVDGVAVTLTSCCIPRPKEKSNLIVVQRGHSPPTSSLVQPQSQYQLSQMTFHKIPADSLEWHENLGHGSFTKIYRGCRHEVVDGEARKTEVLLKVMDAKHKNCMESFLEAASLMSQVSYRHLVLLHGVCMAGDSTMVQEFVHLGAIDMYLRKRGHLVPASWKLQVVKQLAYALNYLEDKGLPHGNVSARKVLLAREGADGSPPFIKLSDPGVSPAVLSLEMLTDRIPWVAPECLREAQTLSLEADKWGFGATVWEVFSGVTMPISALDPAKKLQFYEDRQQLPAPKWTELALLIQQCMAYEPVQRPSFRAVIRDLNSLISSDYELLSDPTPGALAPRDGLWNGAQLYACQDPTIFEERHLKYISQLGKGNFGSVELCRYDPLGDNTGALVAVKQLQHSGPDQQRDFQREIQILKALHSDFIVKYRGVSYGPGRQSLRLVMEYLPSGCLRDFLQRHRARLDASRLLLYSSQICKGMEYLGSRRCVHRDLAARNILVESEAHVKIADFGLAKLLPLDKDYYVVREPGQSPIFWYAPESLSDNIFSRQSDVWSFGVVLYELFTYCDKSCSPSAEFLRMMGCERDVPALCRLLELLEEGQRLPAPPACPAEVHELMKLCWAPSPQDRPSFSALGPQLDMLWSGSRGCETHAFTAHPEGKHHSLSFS
Description: GSK_PKIS: JAK3 mean inhibition at 1 uM [Nanosyn]
Result type: inhibition (%)

INSERT INTO measurements (smiles_input, assay_value) VALUES
  ('COC(=O)Nc1nc2cc(Oc3ccc(NC(=O)Nc4cccc(Br)c4)cc3)ccc2[nH]1', 1.27),
  ('CN(C)CCCn1c(-c2nonc2N)nc2cnccc21', -0.27),
  ('NS(=O)(=O)c1ccc(-c2cc3ccncc3cc2OCc2ccccc2)cc1', -1.27),
  ('CS(=O)(=O)CCNCc1nc(-c2ccc3ncnc(Nc4ccc(OCc5cccc(C(F)(F)F)c5)cc4)c3c2)cs1', 1.6),
  ('O=S(=O)(CCOCc1ccc(-c2ccc3ncnc(Nc4ccc(OCc5cccc(F)c5)c(Cl)c4)c3c2)o1)c1ccccc1', 2.6);

Just for reference, ChEMBL document CHEMBL1961873 is where these values come from.
